- Test system: ATP;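 also: ATP exposure 15 min at 22 °C before imaging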
- method-notes: switch fluorescence ratio, 500 uM ATP over buffer (Cy3 cluster intensity, sum of 5 cycles each) (fold (ratio)); higher = stronger signal-on switching upon ATP binding; sequences stand for … in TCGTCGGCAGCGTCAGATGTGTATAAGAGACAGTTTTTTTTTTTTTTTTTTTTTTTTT…TC
- test-conditions: aptamer strand: ATP DNA aptamer (quencher-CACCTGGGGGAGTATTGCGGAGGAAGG + anchor), 100 nM annealed; ATP concentration: 500 uM
The following sequences are listed with their measured switch fluorescence ratio values.

sequence-input: ATGGCATGCT
switch fluorescence ratio: 1.02

sequence-input: CCGGGAGTTG
switch fluorescence ratio: 1.01

sequence-input: TGGGTTGGGT
switch fluorescence ratio: 0.993

sequence-input: TAAGTATCGC
switch fluorescence ratio: 1.03

sequence-input: TTTCAGTTCT
switch fluorescence ratio: 0.977

sequence-input: CAAGTATCAT
switch fluorescence ratio: 0.996

sequence-input: TTTGTGAGTA
switch fluorescence ratio: 1

sequence-input: TGGATATAGA
switch fluorescence ratio: 1.01

sequence-input: GTGGCAGGGG
switch fluorescence ratio: 1.36

sequence-input: CGGAAGCGTG
switch fluorescence ratio: 0.984

sequence-input: TAGTGATACG
switch fluorescence ratio: 0.986

sequence-input: GTAGGGGCCC
switch fluorescence ratio: 1.02

sequence-input: CTTGGTGGGA
switch fluorescence ratio: 1.04

sequence-input: TAGGGACAGG
switch fluorescence ratio: 0.99

sequence-input: GGGGGAGAAT
switch fluorescence ratio: 0.986

sequence-input: GAGAAAAATG
switch fluorescence ratio: 0.96

sequence-input: ATGGGCGTTG
switch fluorescence ratio: 0.966

sequence-input: TTTCGGGTTG
switch fluorescence ratio: 1.02

sequence-input: TGGAAATAGG
switch fluorescence ratio: 0.981

sequence-input: GAAGGCCCGG
switch fluorescence ratio: 0.99

* * *

The following sequences are listed with their measured switch fluorescence ratio values.
- Tested on: ATP;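 also: ATP exposure 15 min at 22 °C before imaging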
- method-notes: switch fluorescence ratio, 500 uM ATP over buffer (Cy3 cluster intensity, sum of 5 cycles each) (fold (ratio)); higher = stronger signal-on switching upon ATP binding; sequences stand for … in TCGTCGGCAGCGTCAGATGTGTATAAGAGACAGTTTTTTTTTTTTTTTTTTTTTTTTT…TC
- test-conditions: aptamer strand: ATP DNA aptamer (quencher-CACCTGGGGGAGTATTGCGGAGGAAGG + anchor), 100 nM annealed; ATP concentration: 500 uM

sequence-input: GGTGTTAATT
switch fluorescence ratio: 0.989

sequence-input: GGATAATGAG
switch fluorescence ratio: 0.961

sequence-input: ACGGTGACTA
switch fluorescence ratio: 1.1

sequence-input: TTTCGAAGGG
switch fluorescence ratio: 1.04

sequence-input: AAAGTAGAGG
switch fluorescence ratio: 0.969

sequence-input: TTATGGACGT
switch fluorescence ratio: 1.01

sequence-input: TATTATCTTT
switch fluorescence ratio: 1.01

sequence-input: GACGAGGGGC
switch fluorescence ratio: 1.18

sequence-input: TAGGGGGGCG
switch fluorescence ratio: 1.01

sequence-input: AGGGTCACTC
switch fluorescence ratio: 0.986

sequence-input: TTGGATTGGG
switch fluorescence ratio: 1.02

sequence-input: TTGAGTGTTT
switch fluorescence ratio: 1.02

sequence-input: TCCTTTAAAT
switch fluorescence ratio: 1.13

sequence-input: TTCTGGCTTT
switch fluorescence ratio: 1.16

sequence-input: GCCGCGTATA
switch fluorescence ratio: 1.43

sequence-input: TGTAGCAGCG
switch fluorescence ratio: 1.1

sequence-input: TTGGTACTGT
switch fluorescence ratio: 1.02

sequence-input: GTTCAGGGCT
switch fluorescence ratio: 1.01

sequence-input: CGGGGTCGG
switch fluorescence ratio: 1

sequence-input: ATGAGGGGGA
switch fluorescence ratio: 0.997

sequence-input: GCGATAAAGC
switch fluorescence ratio: 1.03
